B1: C10orf62 (parent)
chain: MLWVQRKRRRKETSECPSDKDKSP

# Variants of: B1
# assay_text: protein stability index of a GFP-peptide fusion (GPS, HEK-293T) (PSI 1-6); higher = more stable;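 note: lentivirally expressed fusions sorted by FACS into six bins by GFP to DsRed ratio, PSI derived from sequencing read proportions per bin multiplied by bin number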
# condition_context: c terminus: a fixed tail appended
readout_type: protein stability index
Please reply with the number alone, leaving off any unit.

Prompt line: Param item = K22P ; retrieve measured protein stability index.
Response line: 3.58

Prompt line: Repeat for the following variant: K7Y
Response line: 1.57

Prompt line: M1C , same question.
Response line: 3.06

Prompt line: What about this variant? E15F
Response line: 3

Prompt line: Now give it for S23P too.
Response line: 2.88

Prompt line: Then this variant: R9T
Response line: 3.49

Prompt line: Would you mind doing K7A as well?
Response line: 3.08

Prompt line: Now consider R6Q and answer again.
Response line: 3.27

Prompt line: Follow-up item: E12Q
Response line: 3.37

Prompt line: Then what about the variant Q5Y ?
Response line: 2.8

Prompt line: Now this one: P24Y
Response line: 2.57

Prompt line: Then this variant: M1I
Response line: 1.24

Prompt line: Same question for P24F please.
Response line: 2.46

Prompt line: Another: E15K
Response line: 2.74

Prompt line: And K20N ?
Response line: 4.29

Prompt line: Next variant up: R8N
Response line: 3.78

Prompt line: // query: P24T
Response line: 2.98

Prompt line: Cool, now R9C
Response line: 2.81

Prompt line: Follow-up item: K11Q
Response line: 3.44

Prompt line: D21R , same question.
Response line: 1.92

Prompt line: Then this variant: D19Q
Response line: 2.65

Prompt line: Moving on to T13D
Response line: 2.3
